system: Klebsiella pneumoniae; assay: Antibacterial activity against Klebsiella pneumoniae ATCC 700603 assessed as inhibition of bacterial growth incubated for 18 hrs by microbroth dilution assay; type: functional
Measured MIC by item
The response must be a number in µM with no trailing unit.

- Chemical structure: "N=C(N)NCCC[C@H](NC(=O)CNC(=O)[C@H]1CCCN1C(=O)[C@H](CCCNC(=N)N)NC(=O)[C@H](Cc1ccccc1)NC(=O)[C@H](CCCNC(=N)N)NC(=O)[C@H](Cc1ccccc1)NC(=O)[C@H](CCCNC(=N)N)NC(=O)[C@@H](N)Cc1ccccc1)C(=O)N[C@@H](Cc1ccccc1)C(=O)N[C@@H](CCCNC(=N)N)C(=O)N[C@@H](Cc1ccccc1)C(=O)N[C@@H](CCCNC(=N)N)C(=O)N[C@@H](Cc1ccccc1)C(N)=O"
  MIC, µM: 8
- Chemical structure: "N=C(N)NCCC[C@@H](NC(=O)CNC(=O)[C@H]1CCCN1C(=O)[C@@H](CCCNC(=N)N)NC(=O)[C@@H](Cc1ccccc1)NC(=O)[C@@H](CCCNC(=N)N)NC(=O)[C@@H](Cc1ccccc1)NC(=O)[C@@H](CCCNC(=N)N)NC(=O)[C@H](N)Cc1ccccc1)C(=O)N[C@H](Cc1ccccc1)C(=O)N[C@H](CCCNC(=N)N)C(=O)N[C@H](Cc1ccccc1)C(=O)N[C@H](CCCNC(=N)N)C(=O)N[C@H](Cc1ccccc1)C(N)=O"
  MIC, µM: 8

Turning now to a further compound:
Reported MIC for N=C(N)NCCC[C@H](NC(=O)[C@H](Cc1ccccc1)NC(=O)[C@H](CCCNC(=N)N)NC(=O)[C@H](Cc1ccccc1)NC(=O)[C@H](CCCNC(=N)N)NC(=O)CNC(=O)[C@H]1CCCN1C(=O)[C@H](CCCNC(=N)N)NC(=O)[C@H](Cc1ccccc1)NC(=O)[C@H](CCCNC(=N)N)NC(=O)[C@H](Cc1ccccc1)NC(=O)[C@@H](N)CCCNC(=N)N)C(N)=O was 16

This collection of values is drawn from ChEMBL document CHEMBL6087436.
